assay: binders of probe aHhip on microarray, primary screen, stem cell growth factor project, biochemical, small-molecule microarray, fluorescence 635/667 (AID 1087); settings: higher = more signal;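 further: score merges spot fluorescence at 667nm with spot signal to noise ratio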
The following compounds are listed with their measured composite z-score values.
Form rule: numeric answer, no unit written next to it.

Example cases with answers are listed next.
Compound Smiles	composite z-score
COCCOC(=O)N1C(=O)[C@@]2(c3cc(C#CCNC(N)=O)ccc31)[C@H](C(=O)N1CCc3cc(OC)c(OC)cc3C1)[C@H]1C(=O)O[C@H](c3ccccc3)[C@H](c3ccccc3)N1[C@@H]2c1ccccc1OCCO	-0.191
O=C1c2ccccc2[C@](Cc2ccccc2I)(C(=O)NCC(F)(F)F)[C@H](c2ccc(CO)cc2)N1C1CCCCC1	-0.134

As a next step, examine the compound that follows.
IN: // returns reported composite z-score for input [N-]=[N+]=Nc1ccccc1C[C@]1(C(=O)N2CCOCC2)N=C(c2ccc(OCCCO)cc2)O[C@H]1c1ccccc1
OUT: 0.348

* * *

assay: small-molecule microarray binders of probe aShh, primary screen, biochemical, biotinylated probe, 635/667 nm fluorescence (AID 1114); settings: higher = more signal;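 further: probe is biotin-labelled aShh protein from a stem cell growth factor screen; measures binding of labelled protein to compounds printed on the slide; score merges feature fluorescence at 667 nm with signal-to-noise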
Each entry below lists one item and its recorded composite z-score value.
Could you respond with only the numeric value?

# count of solved cases: 5
Compound	composite z-score
CC1CC/C=C\[C@H]2OC34C=CCN(C(C)C)C(=O)[C@H]3N(CCCCCCO)C(=O)[C@@H]4C2C(=O)O1 (stereo partly drawn)	-0.117
CCC[C@@H]1C[C@@]1(CCC)[C@@H](NC(=O)OCc1ccccc1)c1ccc(-c2ccccc2)cc1	1.42
COC(=O)C(CC#Cc1ccc2c(c1)[C@]1(C(=O)N2)[C@H](C(=O)N2CCN(c3ncccn3)CC2)[C@H]2C(=O)O[C@H](c3ccccc3)[C@H](c3ccccc3)N2[C@@H]1c1ccc(OCCO)cc1)C(=O)OC	-0.144
C=CCC(OC(C)=O)[C@@H]1[C@@H](N(Cc2cccc3ccccc23)C(=O)Cc2ccc(F)cc2)c2cc(OCCCO)ccc2N1C(=O)c1ccc2ccccc2n1 (stereo partly drawn)	-0.123
COC(=O)[C@@]1(Cc2ccc(OC)cc2)[C@H]2c3cc(C(=O)N(C)C)n(CCO)c3C[C@H]2CN1C(=O)c1ccccc1	0.0044

IN: Please give the measured composite z-score for this compound: CN1C(=O)C2C=CC(C(O)COCc3ccccc3)N(N(c3ccccc3)c3ccccc3)C2C1=O (stereo not drawn)
OUT: 0.204

IN: Any idea what composite z-score was measured for CN1C(=O)C2C=CC(C(O)c3ccc(F)cc3)N(Nc3ccccc3)C2C1=O (stereo not drawn) ?
OUT: -0.412

IN: Entry CC(=O)c1ccc(C(O)C2C=CC3C(=O)N(c4ccccc4)C(=O)C3N2Nc2ccc(C#N)cc2)cc1 (stereo not drawn) : reported composite z-score = ?
OUT: 0.149

* * *

test: basal S. cerevisiae growth modulation, no modifier, primary screen, OD600, strain BY4716, 24 h, basal condition (AID 1173); conditions: OD600, 24 h, higher = more signal, called active from +8 up or from −8 down
Test Readout: z-score
Note: the reply should be a number with no unit written.

IN: For the compound shown here, COc1ccc(-c2nc(-c3ccccc3)c3c(c2C)CO[Si]3(C(C)C)C(C)C)cn1 , give the reported z-score.
OUT: 0.232

IN: If you can, please state the reported z-score value of O=c1n(-c2ccccc2)c(=O)n2n1CC(COc1ccccc1)=C([C@H](O)CCc1ccccc1)[C@@H]2CO .
OUT: -2.28

* * *

assay: P. aeruginosa biofilm formation inhibitors, primary screen, PAO1 strain, BacTiter-Glo luminescence, LB-PBS (AID 1144); conditions: 12 h, higher = more signal
Test Readout: z-score
Quick one: just the number, no unit, thanks!

As a guide, the following entries are already answered.
Compound Smiles	Observed Value
COC(=O)[C@@]1(Cc2ccc(F)cc2)[C@H]2c3cc(C(=O)N4CCCC4)n(CCN4CNCC4=O)c3C[C@H]2CN1C(=O)c1ccccc1	-0.917
COc1ccc(CCNC(=O)[C@@]2(Sc3ccc(C)cc3)CC(=O)N(C3Cc4ccccc4C3)[C@@H]2c2ccc(CO)cc2)cc1	-0.926
O=C1O[C@H](c2ccccc2)[C@H](c2ccccc2)N2[C@H]1[C@@H](C(=O)Nc1nc3ccccc3s1)[C@]1(C(=O)Nc3ccc(C#CCCO)cc31)[C@H]2c1ccc(O)cc1	-0.911

Now take the following molecule into account.
IN: I have this molecule here, COc1ccc(CN(C2=CC[C@@]3(C(N)=O)C(=O)C(Cl)=C(Cl)C(=O)[C@@]3(C#N)C2)S(=O)(=O)c2ccc(Br)cc2)cc1 , and I need its recorded z-score.
OUT: -0.897

* * *

biological target: Fibroblast growth factor 2 (Homo sapiens); test: FGF2 binders on small-molecule microarrays, primary screen, biochemical, small-molecule microarray, 635/667 nm fluorescence (AID 1133); conditions: small-molecule microarray binding, FGF2, fluorescence 635/667; higher = more signal
Test Readout: composite z-score
Note: the reply should be a number with no unit written.

Solved entries (count: 10):
Molecule	composite z-score
OCCCC1=CC(c2ccc(CN3CCCC3)cc2)N(Cc2sc3ccccc3c2Cl)CC1 (stereo not drawn)	1.38
CCOc1cc(C(O)C2C=CC3C(=O)N(C)C(=O)C3N2Nc2ccccc2)ccc1O (stereo not drawn)	-0.153
COc1cc(CO)cc(I)c1O[C@H]1C=C(C(=O)NCCO)C[C@@H](NCc2ccc(F)cc2)[C@@H]1O	1.03
CCOC(=O)c1ccc(NC(=O)O[C@H]2[C@H](OC(=O)Nc3ccc4c(c3)OCO4)[C@@H](OC(=O)Nc3ccc4c(c3)OCO4)[C@@H](OC)O[C@@H]2CO)cc1	1.12
CCC[C@@H]1C[C@@]1(CCC)[C@@H](NC(=O)OCc1ccccc1)c1ccc(-c2ccccc2)cc1	-0.824
[N-]=[N+]=NCc1ccccc1[C@H]1OC(c2ccc(OCCCO)cc2)=N[C@@]1(CCS(=O)(=O)c1ccccc1)C(=O)N1CCCCC1	0.227
CN(C)c1ccc(C(O)C2C=CC3C(=O)N(c4ccccc4)C(=O)C3N2Nc2ccc([N+](=O)[O-])cc2)cc1 (stereo not drawn)	-0.181
CN(C)CCCNC(=O)[C@@]1(c2ccc([N+](=O)[O-])cc2)CC(=O)N(CC23CC4CC(CC(C4)C2)C3)[C@@H]1c1ccc(CO)cc1I	1.34
Cc1ccc(S[C@]2(C(=O)NCC(F)(F)F)CC(=O)N(Cc3ccccc3C(F)(F)F)[C@@H]2c2ccc(CO)cc2I)cc1	-1.08
COc1ccc([Si](C)(C)[C@@H]2[C@@H](CC(=O)N(CCO)Cc3ccccc3)O[C@]3(C(=O)N(c4ccccc4)c4ccccc43)[C@H]2C)cc1	0.716

IN: Missing value: composite z-score, Fibroblast growth factor 2 (Homo sapiens), entry CC1CC/C=C\[C@H]2OC34C=CCN(C(C)C)C(=O)[C@H]3N(CCCCCCO)C(=O)[C@@H]4C2C(=O)O1 (stereo partly drawn) . Fill in?
OUT: -1.09

IN: Given the entry O=C1O[C@H](c2ccccc2)[C@H](c2ccccc2)N2[C@H]1[C@@H](C(=O)Nc1nc3ccccc3s1)[C@]1(C(=O)Nc3ccc(C#CCCO)cc31)[C@H]2c1ccc(O)cc1 , what composite z-score was observed with Fibroblast growth factor 2 (Homo sapiens)?
OUT: 0.585

IN: Enter reported composite z-score observed with Fibroblast growth factor 2 (Homo sapiens) for Cc1ccc(S[C@]2(C(=O)O)CC(=O)N(C3Cc4ccccc4C3)[C@@H]2c2ccc(CO)cc2)cc1
OUT: -0.306

* * *

test system: Wnt5a (protein binding on small-molecule microarray); test: Wnt5a binders on small-molecule microarray, primary screen, biophysical, 635/667 nm fluorescence (AID 1142); conditions: 635 nm fluorescence, higher = more signal;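 further: fluorescence read at 667 nm with signal to noise per printed feature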
Grouping key: composite z-score. Bins: lower segment (below 0.04), middle segment (0.04 to below 0.5), upper segment (0.5 or more)

Compound	Cat
Cc1ccc(S[C@]2(C(=O)O)CC(=O)N(C3Cc4ccccc4C3)[C@@H]2c2ccc(CO)cc2)cc1	lower segment

IN: Pick a category. Item: C[N+](C)(C)CCCC[C@@H]1NC(=O)[C@H]2C[C@@H](C(=O)NCCCCCCN)[C@@H](c3ccc(O)cc3)N2C1=O
OUT: middle segment

IN: Hi, small favor: classify CCCCCCCCCCC(O)C1C=CC2C(=O)N(C)C(=O)C2N1Nc1ccc([N+](=O)[O-])cc1[N+](=O)[O-] (configuration not stated) by its composite z-score when you get a moment.
OUT: middle segment

IN: Lab note: which band did CC1=C[C@@]2(CO)C(=O)[C@]3(CO3)[C@@H]1[C@H]1[C@]2(C)C=C(CO)C(=O)[C@]12CO2 land in?
OUT: middle segment

IN: Lab note: sort CCOC(=O)C1CCCCN1 (configuration not stated) into the matching composite z-score band.
OUT: upper segment

IN: Classify this compound: C[N+](C)(C)CCCCCCNC(=O)[C@H]1C[C@H]2C(=O)N[C@@H](Cc3ccccc3)C(=O)N2[C@H]1c1ccc(O)cc1
OUT: middle segment

IN: Place this compound in its band: COCCOC(=O)N1C(=O)[C@@]2(c3cc(C#Cc4ccc(OC)cc4)ccc31)[C@H](c1ccc(O)cc1)N1[C@H](c3ccccc3)[C@H](c3ccccc3)OC(=O)[C@H]1[C@@H]2C(=O)N1CCCCCCC1
OUT: upper segment

IN: Please indicate the class for CN(C)C(=O)[C@@]1(CCS(=O)(=O)c2ccccc2)N=C(c2ccc(OCCCO)cc2)O[C@H]1c1ccccc1 based on its composite z-score.
OUT: upper segment

IN: Consider CCOC(=O)C1=C[C@@H](c2ccccc2)N(S(=O)(=O)c2ccc(C)cc2)[C@H]1c1ccccc1Cl . To which composite z-score class does it belong?
OUT: middle segment

IN: Hi there! Could you help me figure out the category for COC(=O)[C@@]1(Cc2ccc(OC)cc2)[C@H]2c3cc(C(=O)N(C)C)n(Cc4ccc(Cl)c(C(F)(F)F)c4)c3C[C@H]2CN1C(=O)c1ccccc1 please?
OUT: upper segment

IN: Quick check: band for O=C(N1CCCCC1)[C@@]1(CCS(=O)(=O)c2ccccc2)COC(c2ccc(OCCCO)cc2)=N1
OUT: upper segment

IN: Which class does COCCOC(=O)N1C(=O)[C@@]2(c3cc(C#CC4=CCCCC4)ccc31)[C@H](c1ccc(OCCO)cc1)N1[C@H](c3ccccc3)[C@H](c3ccccc3)OC(=O)[C@H]1[C@@H]2C(=O)N1CCN(c2ncccn2)CC1 fall in?
OUT: middle segment

IN: Classify this compound: COC(=O)[C@@]1(Cc2ccc(F)cc2)[C@H]2c3cc(C(=O)N(C)C)n(CCc4ccc(O)c(OC)c4)c3C[C@H]2CN1C(=O)c1ccccc1
OUT: upper segment

IN: Which class does COC(=O)[C@H](Cc1ccccc1)N1CC(/C=C/C2CC2)=C[C@H]1[C@H](O)Cc1ccccc1 fall in?
OUT: lower segment

IN: Returns: class label. Input: O=C1N(Cc2ccccc2)c2ccccc2[C@@H]2OC(c3ccc(OCCCO)cc3)=N[C@]12Cc1ccccc1
OUT: lower segment

IN: In plain terms, what class is COc1ccccc1CN1C(=O)c2ccccc2[C@](Cc2ccccc2I)(C(=O)NCC(F)(F)F)[C@@H]1c1ccc(CO)cc1 ?
OUT: middle segment

IN: Which class holds O=C1OCC=C[C@H]2OC34C=CCN(c5ccc(Cl)cc5)C(=O)[C@H]3N(CCO)C(=O)[C@@H]4[C@@H]12 (some centres not stated) ?
OUT: lower segment
